assay: Plasma pharmacokinetics on Cycle 1 Day 15, noncompartmental; format: in vivo, human; conditions: human, plasma, oral, 150 mg, 150 mg MMB QD n = 3; steady state, plasma; mean (% coefficient of variation); read-out: Cmax
measured_quantity: Cmax (ng/mL)
Numbers only, in ng/mL.

Quote Cmax reported for N#CCNC(=O)c1ccc(-c2ccnc(Nc3ccc(N4CCOCC4)cc3)n2)cc1 [MMB, momelotinib] please.
200

====

experiment: Plasma pharmacokinetics on Cycle 1 Day 15, noncompartmental; type: in vivo, human; details: human, plasma, oral, 200 mg, 200 mg MMB BID n = 3; steady state, plasma; median (first quarter, third quarter); read-out: Tmax
measured_quantity: Tmax (h)
Answers are plain numbers, in h.

Quote Tmax reported for N#CCNC(=O)c1ccc(-c2ccnc(Nc3ccc(N4CCOCC4)cc3)n2)cc1 [MMB, momelotinib] please.
3

Hey, just so you know, these numbers are from paper PMC6510909.
